Tested on: CAF#2 (primary prostate cancer-associated fibroblasts of iCAF-like type)
experiment description: drug sensitivity score (DSS2, normalised partial AUC of dose-response, 72 h CellTiter-Glo viability) (DSS (dimensionless)); higher = more sensitive (stronger growth inhibition / cytotoxicity); extreme values may be limits of the assay
metric name: drug sensitivity score
Give only the figure.

Query :: Provide measured drug sensitivity score on CAF#2 for CNC(=O)c1ccccc1Sc1ccc2c(/C=C/c3ccccn3)n[nH]c2c1 [Axitinib] (tested concentration range 1-10000 nM) please.
Result :: 5.1

Query :: Provide measured drug sensitivity score on CAF#2 for CN(C)C1CCN(C(=O)c2ccc(NC(=O)Nc3ccc(-c4nc(N5CCOCC5)nc(N5CCOCC5)n4)cc3)cc2)CC1 [Gedatolisib] (tested concentration range 0.1-1000 nM) please.
Result :: 5.1

Query :: Provide measured drug sensitivity score on CAF#2 for CC(C)(C#N)c1cc(Cn2cncn2)cc(C(C)(C)C#N)c1 [Anastrozole] (tested concentration range 1-10000 nM) please.
Result :: 0

Query :: Provide measured drug sensitivity score on CAF#2 for O=C(NCc1ccncc1)C12CC3CC(C1)CC(c1ccc(Cl)cc1)(C3)C2 [Opaganib] (tested concentration range 5-50000 nM) please.
Result :: 4.4

Query :: Provide measured drug sensitivity score on CAF#2 for Cc1ccc(NC(=O)c2ccc(CN3CCN(C)CC3)cc2)cc1Nc1nc(-c2cccnc2)cs1 [Masitinib] (tested concentration range 1-10000 nM) please.
Result :: 5.3

Query :: Provide measured drug sensitivity score on CAF#2 for COc1cc(OC)cc(N(CCNC(C)C)c2ccc3ncc(-c4cnn(C)c4)nc3c2)c1 [Erdafitinib] (tested concentration range 0.1-1000 nM) please.
Result :: 4.8

Query :: Provide measured drug sensitivity score on CAF#2 for C[C@@]1(C(=O)Nc2ccc(F)nc2)CCCN1c1nc(Nc2cc(C3CC3)n[nH]2)c2cccn2n1 (tested concentration range 1-10000 nM) please.
Result :: 12.2

Query :: Provide measured drug sensitivity score on CAF#2 for C=CCn1c(=O)c2cnc(Nc3ccc(N4CCN(C)CC4)cc3)nc2n1-c1cccc(C(C)(C)O)n1 [Adavosertib] (tested concentration range 1-10000 nM) please.
Result :: 10.3

Query :: Provide measured drug sensitivity score on CAF#2 for CC/C(=C(\c1ccccc1)c1ccc(OCCN(C)C)cc1)c1ccccc1 [Tamoxifen] (tested concentration range 1-10000 nM) please.
Result :: 1.3

Query :: Provide measured drug sensitivity score on CAF#2 for CN1C(=O)N[C@H](Cc2c[nH]c3c(Cl)cccc23)C1=O [Necrostatin 2] (tested concentration range 1-10000 nM) please.
Result :: 0

Query :: Provide measured drug sensitivity score on CAF#2 for CC(C)C[C@@H](C(=O)N[C@H](C(=O)OC1CCCC1)c1ccccc1)[C@H](O)C(=O)NO [Tosedostat] (tested concentration range 1-10000 nM) please.
Result :: 0.6

Query :: Provide measured drug sensitivity score on CAF#2 for CC(C)(O)CNc1nc(Nc2ccnc(C(F)(F)F)c2)nc(-c2cccc(C(F)(F)F)n2)n1 [Enasidenib] (tested concentration range 1-10000 nM) please.
Result :: 0

Query :: Provide measured drug sensitivity score on CAF#2 for Nc1nc(Cl)nc2c1ncn2[C@@H]1O[C@H](CO)[C@@H](O)[C@@H]1F [Clofarabine] (tested concentration range 1-10000 nM) please.
Result :: 10.6
